target: FLT4 (VEGFR3) (Homo sapiens)
Sequence (P35916 25-1363, species assumed): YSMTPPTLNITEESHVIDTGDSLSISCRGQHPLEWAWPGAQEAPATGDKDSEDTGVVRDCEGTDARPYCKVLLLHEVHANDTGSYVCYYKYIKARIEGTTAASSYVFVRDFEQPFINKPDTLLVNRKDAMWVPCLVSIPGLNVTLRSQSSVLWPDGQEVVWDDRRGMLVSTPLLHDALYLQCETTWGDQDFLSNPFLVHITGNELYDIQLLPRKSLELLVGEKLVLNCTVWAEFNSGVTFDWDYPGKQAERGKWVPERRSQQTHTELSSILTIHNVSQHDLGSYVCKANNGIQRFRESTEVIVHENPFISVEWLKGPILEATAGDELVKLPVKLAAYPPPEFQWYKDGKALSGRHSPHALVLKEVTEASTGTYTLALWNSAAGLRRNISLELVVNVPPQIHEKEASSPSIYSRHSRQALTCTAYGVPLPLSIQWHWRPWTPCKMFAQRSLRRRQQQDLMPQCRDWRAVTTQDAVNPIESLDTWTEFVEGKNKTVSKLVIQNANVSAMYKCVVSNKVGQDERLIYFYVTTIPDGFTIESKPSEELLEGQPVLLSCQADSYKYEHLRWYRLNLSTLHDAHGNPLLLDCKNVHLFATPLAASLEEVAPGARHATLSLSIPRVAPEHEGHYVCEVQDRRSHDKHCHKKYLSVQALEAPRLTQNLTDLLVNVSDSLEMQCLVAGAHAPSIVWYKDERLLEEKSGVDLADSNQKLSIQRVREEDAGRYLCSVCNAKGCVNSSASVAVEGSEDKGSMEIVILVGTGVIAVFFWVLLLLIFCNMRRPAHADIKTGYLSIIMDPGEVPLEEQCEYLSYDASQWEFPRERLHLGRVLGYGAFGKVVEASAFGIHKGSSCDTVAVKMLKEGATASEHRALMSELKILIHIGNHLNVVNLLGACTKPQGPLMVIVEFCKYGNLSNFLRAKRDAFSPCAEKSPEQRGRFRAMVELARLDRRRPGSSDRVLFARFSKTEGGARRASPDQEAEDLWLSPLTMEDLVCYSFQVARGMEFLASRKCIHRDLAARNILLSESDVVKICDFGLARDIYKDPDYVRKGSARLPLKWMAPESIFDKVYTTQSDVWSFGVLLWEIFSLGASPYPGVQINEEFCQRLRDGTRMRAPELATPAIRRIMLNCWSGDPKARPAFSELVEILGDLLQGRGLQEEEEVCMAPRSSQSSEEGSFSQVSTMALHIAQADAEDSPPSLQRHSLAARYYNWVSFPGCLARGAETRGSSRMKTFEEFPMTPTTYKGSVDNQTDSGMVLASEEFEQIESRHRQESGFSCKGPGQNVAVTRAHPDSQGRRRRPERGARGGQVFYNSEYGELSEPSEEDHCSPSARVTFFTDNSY
pIC50: −log10 of the molar value.
measured_metric: pIC50

compound_structure_string=C#CCOc1ccc(Nc2ncc(Cl)c(Nc3ccccc3NC(=O)C=C)n2)c(OC)c1 target="FLT4 (VEGFR3) (Homo sapiens)" observed_measurement=6.70

====

# reported Relative phosphorylation (% of highest signal); entries follow
biological target: FES^WT (Homo sapiens, UniProt P07332); construct: human FES cDNA encoding residues 448–822 or human FER cDNA encoding residues 448–820 was amplified by PCR; made in house; host or cells: E. coli BL21(DE3), co-expressing YopH phosphatase; assay: PamChip microarray peptide phosphorylation; format: biochemical; conditions: peptide substrate phosphorylated by FES - WT
Sequence (P07332 448-822): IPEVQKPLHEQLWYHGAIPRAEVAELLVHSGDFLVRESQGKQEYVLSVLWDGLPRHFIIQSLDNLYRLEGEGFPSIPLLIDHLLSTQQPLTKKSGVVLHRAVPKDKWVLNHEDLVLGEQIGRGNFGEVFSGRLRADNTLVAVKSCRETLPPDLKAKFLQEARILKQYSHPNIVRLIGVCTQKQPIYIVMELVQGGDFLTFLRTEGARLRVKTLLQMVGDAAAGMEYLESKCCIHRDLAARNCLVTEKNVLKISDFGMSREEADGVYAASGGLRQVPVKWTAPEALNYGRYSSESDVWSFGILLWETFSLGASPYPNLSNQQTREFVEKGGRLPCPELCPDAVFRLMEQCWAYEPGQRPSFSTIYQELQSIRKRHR
measured_metric: Relative phosphorylation (% of highest signal)

substance=ART_004_EAIYAAPFAKKKXC observed_measurement="5.0 % of highest signal"
substance="MK01_198_210 (IMLNSKGYTKSID; UniProt P28482 198-210, looked up, fragment)" observed_measurement="-0.6 % of highest signal"
substance="EPHA2_581_593 (QLKPLKTYVDPHT; UniProt P29317 581-593, looked up, fragment)" observed_measurement="-0.0404 % of highest signal"
substance="VGFR2_989_1001 (EEAPEDLYKDFLT; UniProt P35968 989-1001, looked up, fragment)" observed_measurement="10.0 % of highest signal"
substance="VGFR2_1046_1058 (DFGLARDIYKDPD; UniProt P35968 1046-1058, looked up, fragment)" observed_measurement="1.1 % of highest signal"

====

Sequence of the target: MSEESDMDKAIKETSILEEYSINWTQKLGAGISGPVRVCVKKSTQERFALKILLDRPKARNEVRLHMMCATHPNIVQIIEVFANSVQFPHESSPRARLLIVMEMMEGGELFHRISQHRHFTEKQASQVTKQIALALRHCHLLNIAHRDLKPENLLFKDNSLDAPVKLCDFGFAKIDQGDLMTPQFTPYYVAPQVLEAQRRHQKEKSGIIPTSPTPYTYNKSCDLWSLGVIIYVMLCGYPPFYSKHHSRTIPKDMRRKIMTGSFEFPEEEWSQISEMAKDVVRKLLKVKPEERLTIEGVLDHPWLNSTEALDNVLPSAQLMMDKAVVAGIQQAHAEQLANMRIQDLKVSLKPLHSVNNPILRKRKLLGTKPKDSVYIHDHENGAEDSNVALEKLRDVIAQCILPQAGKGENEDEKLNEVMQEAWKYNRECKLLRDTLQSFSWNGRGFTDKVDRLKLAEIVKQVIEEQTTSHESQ
measured_metric: IC50 (nM)

compound_structure_string=C#CCOc1ccc(Nc2ncc(Cl)c(Nc3ccccc3NC(=O)C=C)n2)c(OC)c1 measured_metric=IC50 unit_descriptor=nM observed_measurement=501

====

biological target: CSK (Homo sapiens); experiment: PamChip microarray peptide phosphorylation; conditions: peptide substrate phosphorylated by CSK
# Relative phosphorylation (% of highest signal) values compiled below
measured_metric: Relative phosphorylation (% of highest signal)

substance=ART_004_EAIYAAPFAKKKXC target="CSK (Homo sapiens)" observed_measurement="17.0 % of highest signal"
substance="VGFR1_1046_1058_Y1048F (DIFKNPDYVRKGD; UniProt P17948 1046-1058, looked up, variant Y1048F)" target="CSK (Homo sapiens)" observed_measurement="-0.9 % of highest signal"
substance="DDR1_506_518 (LLLSNPAYRLLLA; UniProt Q08345 506-518, looked up, fragment)" target="CSK (Homo sapiens)" observed_measurement="-1.7 % of highest signal"
substance="VGFR1_1162_1174 (VQQDGKDYIPINA; UniProt P17948 1162-1174, looked up, fragment)" target="CSK (Homo sapiens)" observed_measurement="-0.737 % of highest signal"
substance="STAT1_694_706 (DGPKGTGYIKTEL; UniProt P42224 694-706, looked up, fragment)" target="CSK (Homo sapiens)" observed_measurement="-1.4 % of highest signal"
substance="VGFR1_1235_1247 (ATSMFDDYQGDSS; UniProt P17948 1235-1247, looked up, fragment)" target="CSK (Homo sapiens)" observed_measurement="-0.5 % of highest signal"
substance="STAT4_686_698 (TERGDKGYVPSVF; UniProt Q14765 686-698, looked up, fragment)" target="CSK (Homo sapiens)" observed_measurement="-0.9 % of highest signal"

====

target: ABL1 (Homo sapiens, UniProt P00519); assay: PamChip microarray peptide phosphorylation; conditions: peptide substrate phosphorylated by ABL1
Sequence (P00519 whole entry): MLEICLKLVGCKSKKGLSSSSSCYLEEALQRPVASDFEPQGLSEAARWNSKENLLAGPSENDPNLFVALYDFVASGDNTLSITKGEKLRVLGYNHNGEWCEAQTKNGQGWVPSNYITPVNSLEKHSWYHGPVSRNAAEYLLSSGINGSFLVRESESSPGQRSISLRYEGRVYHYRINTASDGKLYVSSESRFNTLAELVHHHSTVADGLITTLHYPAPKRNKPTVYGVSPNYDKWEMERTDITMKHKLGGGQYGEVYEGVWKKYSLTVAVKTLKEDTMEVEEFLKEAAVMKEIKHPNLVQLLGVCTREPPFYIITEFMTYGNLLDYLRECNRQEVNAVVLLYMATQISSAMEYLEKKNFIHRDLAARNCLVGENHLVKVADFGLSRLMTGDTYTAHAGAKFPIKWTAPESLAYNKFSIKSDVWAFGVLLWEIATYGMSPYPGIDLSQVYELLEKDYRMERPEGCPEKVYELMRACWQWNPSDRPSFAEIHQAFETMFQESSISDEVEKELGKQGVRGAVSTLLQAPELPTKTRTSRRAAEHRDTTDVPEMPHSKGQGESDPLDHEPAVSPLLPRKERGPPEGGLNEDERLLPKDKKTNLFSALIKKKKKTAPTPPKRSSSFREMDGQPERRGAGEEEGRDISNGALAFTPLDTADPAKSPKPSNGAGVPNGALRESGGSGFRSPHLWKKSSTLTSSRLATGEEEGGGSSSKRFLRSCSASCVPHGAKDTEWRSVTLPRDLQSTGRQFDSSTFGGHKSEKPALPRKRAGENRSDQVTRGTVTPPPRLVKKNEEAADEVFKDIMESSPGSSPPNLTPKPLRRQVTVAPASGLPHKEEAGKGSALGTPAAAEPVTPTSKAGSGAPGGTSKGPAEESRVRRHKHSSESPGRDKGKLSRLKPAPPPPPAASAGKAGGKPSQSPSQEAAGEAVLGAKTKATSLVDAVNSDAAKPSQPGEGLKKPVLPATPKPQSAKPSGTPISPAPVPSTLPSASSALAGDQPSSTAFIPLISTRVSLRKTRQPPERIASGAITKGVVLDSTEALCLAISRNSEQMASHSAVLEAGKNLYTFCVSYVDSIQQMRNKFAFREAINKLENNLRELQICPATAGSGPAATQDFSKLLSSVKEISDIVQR
measured_metric: Relative phosphorylation (% of highest signal)

substance="EPOR_361_373 (SEHAQDTYLVLDK; UniProt P19235 361-373, looked up, fragment)" target="ABL1 (Homo sapiens, UniProt P00519)" observed_measurement="0.0544 % of highest signal"
substance="MBP_263_275 (GRASDYKSAHKGF; UniProt P02686 263-275, looked up, fragment)" target="ABL1 (Homo sapiens, UniProt P00519)" observed_measurement="-0.13 % of highest signal"
substance="MBP_259_271 (FGYGGRASDYKSA; UniProt P02686 259-271, looked up, fragment)" target="ABL1 (Homo sapiens, UniProt P00519)" observed_measurement="-0.0479 % of highest signal"
substance="STAT6_634_646 (MGKDGRGYVPATI; UniProt P42226 634-646, looked up, fragment)" target="ABL1 (Homo sapiens, UniProt P00519)" observed_measurement="-0.6 % of highest signal"
substance="VINC_815_827 (KSFLDSGYRILGA; UniProt P18206 815-827, looked up, fragment)" target="ABL1 (Homo sapiens, UniProt P00519)" observed_measurement="1.1 % of highest signal"

====

target: CSK (Homo sapiens, UniProt P41240); test: PamChip microarray peptide phosphorylation; settings: peptide substrate phosphorylated by CSK
Sequence (P41240 whole entry): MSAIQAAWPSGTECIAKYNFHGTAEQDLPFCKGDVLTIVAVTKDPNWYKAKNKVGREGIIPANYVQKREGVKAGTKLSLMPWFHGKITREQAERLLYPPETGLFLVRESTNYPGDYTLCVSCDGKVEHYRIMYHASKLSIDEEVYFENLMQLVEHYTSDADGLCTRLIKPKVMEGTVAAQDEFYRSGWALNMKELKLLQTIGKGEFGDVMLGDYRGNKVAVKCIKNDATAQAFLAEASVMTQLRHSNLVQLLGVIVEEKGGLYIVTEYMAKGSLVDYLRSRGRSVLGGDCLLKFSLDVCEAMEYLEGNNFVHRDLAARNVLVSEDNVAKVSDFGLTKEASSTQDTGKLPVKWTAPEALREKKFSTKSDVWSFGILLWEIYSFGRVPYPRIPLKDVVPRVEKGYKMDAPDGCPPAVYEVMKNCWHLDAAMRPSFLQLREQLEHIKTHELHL
measured_metric: Relative phosphorylation (% of highest signal)

substance="VGFR2_944_956 (RFRQGKDYVGAIP; UniProt P35968 944-956, looked up, fragment)" observed_measurement="-0.8 % of highest signal"
substance="MK01_198_210 (IMLNSKGYTKSID; UniProt P28482 198-210, looked up, fragment)" observed_measurement="-0.8 % of highest signal"
substance="NTRK2_509_521 (PVIENPQYFGITN; UniProt Q16620 509-521, looked up, fragment)" observed_measurement="-0.422 % of highest signal"
substance="VGFR3_1061_1073 (DIYKDPDYVRKGS; UniProt P35916 1061-1073, looked up, fragment)" observed_measurement="0.341 % of highest signal"
substance="VGFR1_1049_1061 (KNPDYVRKGDTRL; UniProt P17948 1049-1061, looked up, fragment)" observed_measurement="-0.8 % of highest signal"
substance="VGFR1_1206_1218 (GSSDDVRYVNAFK; UniProt P17948 1206-1218, looked up, fragment)" observed_measurement="-0.459 % of highest signal"
substance="NPT2A_501_513 (AKALGKRTAKYRW; UniProt Q06495 501-513, looked up, fragment)" observed_measurement="-0.4 % of highest signal"
substance="EPHA4_921_933 (QAIKMDRYKDNFT; UniProt P54764 921-933, looked up, fragment)" observed_measurement="-0.535 % of highest signal"

====

target: SYK (Homo sapiens); assay: PamChip microarray peptide phosphorylation; details: peptide substrate phosphorylated by SYK
measured_metric: Relative phosphorylation (% of highest signal)

substance="VGFR1_1206_1218 (GSSDDVRYVNAFK; UniProt P17948 1206-1218, looked up, fragment)" observed_measurement="-0.354 % of highest signal"
substance="ODBA_340_352_D340K (KDSSAYRSVDEVN; UniProt P12694 340-352, looked up, variant D340K)" observed_measurement="1.5 % of highest signal"
substance="VINC_815_827 (KSFLDSGYRILGA; UniProt P18206 815-827, looked up, fragment)" observed_measurement="-1.0 % of highest signal"
substance="STAT6_634_646 (MGKDGRGYVPATI; UniProt P42226 634-646, looked up, fragment)" observed_measurement="-2.2 % of highest signal"
substance="PERI_458_470 (QRSELDKSSAHSY; UniProt P41219 458-470, looked up, fragment)" observed_measurement="-1.3 % of highest signal"

====

Known Relative phosphorylation (% of highest signal) of a selection of substances
target: FGR (Homo sapiens); assay: PamChip microarray peptide phosphorylation; details: peptide substrate phosphorylated by FGR
measured_metric: Relative phosphorylation (% of highest signal)

substance="EPOR_361_373 (SEHAQDTYLVLDK; UniProt P19235 361-373, looked up, fragment)" observed_measurement="2.0 % of highest signal"
substance="VGFR3_1061_1073 (DIYKDPDYVRKGS; UniProt P35916 1061-1073, looked up, fragment)" observed_measurement="0.468 % of highest signal"
substance="STAT4_686_698 (TERGDKGYVPSVF; UniProt Q14765 686-698, looked up, fragment)" observed_measurement="-4.1 % of highest signal"
substance="VGFR1_1046_1058_Y1048F (DIFKNPDYVRKGD; UniProt P17948 1046-1058, looked up, variant Y1048F)" observed_measurement="-2.7 % of highest signal"
substance="MBP_263_275 (GRASDYKSAHKGF; UniProt P02686 263-275, looked up, fragment)" observed_measurement="-0.9 % of highest signal"
substance="EPHA4_921_933 (QAIKMDRYKDNFT; UniProt P54764 921-933, looked up, fragment)" observed_measurement="-1.7 % of highest signal"
substance="EFS_246_258_Y253F (GGTDEGIFDVPLL; UniProt O43281 246-258, looked up, fragment Y253F)" observed_measurement="-4.8 % of highest signal"
substance="VINC_815_827 (KSFLDSGYRILGA; UniProt P18206 815-827, looked up, fragment)" observed_measurement="-2.6 % of highest signal"
substance="EPHA2_581_593 (QLKPLKTYVDPHT; UniProt P29317 581-593, looked up, fragment)" observed_measurement="-3.2 % of highest signal"
substance="ZBT16_621_633 (LRTHNGASPYQCT; UniProt Q05516 621-633, looked up, fragment)" observed_measurement="3.8 % of highest signal"
substance="VGFR2_1168_1180 (AQQDGKDYIVLPI; UniProt P35968 1168-1180, looked up, fragment)" observed_measurement="-1.8 % of highest signal"
substance="STA5A_687_699 (LAKAVDGYVKPQI; UniProt P42229 687-699, looked up, fragment)" observed_measurement="-3.6 % of highest signal"
substance="ZAP70_485_497 (ALGADDSYYTARS; UniProt P43403 485-497, looked up, fragment)" observed_measurement="7.8 % of highest signal"
substance="VGFR2_1207_1219_C1208S (VSDPKFHYDNTAG; UniProt P35968 1207-1219, looked up, variant C1208S)" observed_measurement="-0.6 % of highest signal"
substance="MK01_198_210 (IMLNSKGYTKSID; UniProt P28482 198-210, looked up, fragment)" observed_measurement="-3.8 % of highest signal"
substance="NTRK2_509_521 (PVIENPQYFGITN; UniProt Q16620 509-521, looked up, fragment)" observed_measurement="-1.0 % of highest signal"
substance="PERI_458_470 (QRSELDKSSAHSY; UniProt P41219 458-470, looked up, fragment)" observed_measurement="-1.2 % of highest signal"
substance="STAT1_694_706 (DGPKGTGYIKTEL; UniProt P42224 694-706, looked up, fragment)" observed_measurement="-3.3 % of highest signal"
substance="NPT2A_501_513 (AKALGKRTAKYRW; UniProt Q06495 501-513, looked up, fragment)" observed_measurement="-2.1 % of highest signal"
substance="VGFR2_944_956 (RFRQGKDYVGAIP; UniProt P35968 944-956, looked up, fragment)" observed_measurement="-1.0 % of highest signal"
substance="VGFR1_1049_1061 (KNPDYVRKGDTRL; UniProt P17948 1049-1061, looked up, fragment)" observed_measurement="-2.4 % of highest signal"
substance="VGFR1_1162_1174 (VQQDGKDYIPINA; UniProt P17948 1162-1174, looked up, fragment)" observed_measurement="-3.4 % of highest signal"
substance="VGFR2_989_1001 (EEAPEDLYKDFLT; UniProt P35968 989-1001, looked up, fragment)" observed_measurement="21.5 % of highest signal"
